Data origin: ChEMBL document CHEMBL1149895

System: RAW264.7
Experiment: Inhibition of LPS-induced nitric oxide production in mouse RAW264.7 cells assessed as nitrite formation
Type: functional, cell-based
pIC50: −log10 of the molar value.

COMPOUND: C[C@]12C(=O)C[C@@H](O)CC1=CC[C@@H]1[C@@H]2CC[C@]2(O)C(=O)O[C@@]3(C)[C@H]4C[C@]5(C)[C@@H](CO[C@@]16O[C@@]32[C@H]5C6=O)C(=O)O4 [PHYSALIN Y]
pIC50: 4.10

COMPOUND: C[C@@]12C[C@H]3OC(=O)[C@@H]1CO[C@]14O[C@]5([C@H]2C1=O)[C@@](O)(CC[C@H]1[C@H]4C[C@H]2O[C@]24CC=CC(=O)[C@]14C)C(=O)O[C@@]35C [PHYSALIN F]
pIC50: 6.48

COMPOUND: C[C@@H]1C(=O)O[C@@H]2C[C@@]1(C)[C@@H]1C(=O)[C@]3(O)O[C@]14[C@@]2(C)OC(=O)[C@@]4(O)CC[C@H]1[C@H]3[C@H](O)C=C2CC=CC(=O)[C@@]21C [PHYSALIN O]
pIC50: 4.77

COMPOUND: C[C@]12C(=O)C[C@@H](O)C=C1C=C[C@@H]1[C@@H]2CC[C@]2(O)C(=O)O[C@@]3(C)[C@H]4C[C@]5(C)[C@@H](CO[C@@]16O[C@@]32[C@H]5C6=O)C(=O)O4 [PHYSALIN Z]
pIC50: 4.12
